Each record here notes measured inhibition at 1 µM.
- systemTested: human recombinant serotonin (5-Hydroxytryptamine) 5-HT2A receptor (Homo sapiens, UniProt P28223)
- Construct: expressed in transfected cells; host or cells: CHO-K1 cells
- Sequence (P28223 whole entry): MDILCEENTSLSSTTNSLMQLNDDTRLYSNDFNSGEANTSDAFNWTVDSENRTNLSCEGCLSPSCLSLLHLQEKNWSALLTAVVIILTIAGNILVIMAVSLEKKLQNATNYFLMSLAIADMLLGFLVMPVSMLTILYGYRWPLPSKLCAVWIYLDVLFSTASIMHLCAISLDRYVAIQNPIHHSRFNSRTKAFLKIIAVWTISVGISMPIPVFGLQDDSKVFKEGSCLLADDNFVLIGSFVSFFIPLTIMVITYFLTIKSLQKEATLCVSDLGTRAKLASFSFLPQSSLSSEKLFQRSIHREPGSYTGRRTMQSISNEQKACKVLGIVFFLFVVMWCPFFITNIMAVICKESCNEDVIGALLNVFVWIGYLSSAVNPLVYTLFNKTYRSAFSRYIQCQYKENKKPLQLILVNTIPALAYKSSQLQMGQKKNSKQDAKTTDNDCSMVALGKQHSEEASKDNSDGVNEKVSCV
- assayText: Serotonin 5-HT2A radioligand binding ([3H]Ketanserin)
- setupConditions: read-out: Serotonin 5-HT2A, inhibition of ligand binding (1 μM)
assayEndpoint: inhibition at 1 µM (%)

[[record]]
compound = "Cc1ccc(CCn2c3c(c4cc(Cl)ccc42)C2CCC(C3)N2C)cn1 (stereo not drawn) [Compound 79]"
measvalue = 28

[[record]]
compound = "COc1ccc(C(C)(O)Cn2c3c(c4cc(Cl)ccc42)C2CCC(C3)N2C)cc1F (stereo not drawn) [Compound 160]"
measvalue = 95

[[record]]
compound = "CCOC(=O)CCn1c2c(c3cc(Cl)ccc31)C1CCC(C2)N1C (stereo not drawn) [Compound 70]"
measvalue = 16

[[record]]
compound = "Cc1ccc2c(c1)c1c(n2CCC#N)CC2CCC1N2C (stereo not drawn) [Compound 103]"
measvalue = 13

[[record]]
compound = "Cc1ccc2c(c1)c1c(n2CCc2ccccc2)CC2CCCC1N2C (stereo not drawn) [Compound 56]"
measvalue = 31

[[record]]
compound = "Cc1ccc(C#Cn2c3c(c4cc(Cl)ccc42)C2CCC(C3)N2C)cn1 (stereo not drawn) [Compound 139]"
measvalue = 88

[[record]]
compound = "CN1C2CCC1c1c(n(CCc3cccnc3)c3ccc(Cl)cc13)C2 (stereo not drawn) [Compound 80]"
measvalue = 33

[[record]]
compound = "CN1C2CCC1c1c(n(CCc3ccc(Cl)cc3)c3ccc(Cl)cc13)C2 (stereo not drawn) [Compound 58]"
measvalue = 79

[[record]]
compound = "Cc1ccc2c(c1)c1c(n2CCc2nc(-c3ccccc3)cs2)CC2CCC1N2C (stereo not drawn) [Compound 114]"
measvalue = 88

[[record]]
compound = "CN1C2CCC1c1c(n(CCc3cncc(Cl)c3)c3ccc(Cl)cc13)C2 (stereo not drawn) [Compound 87]"
measvalue = 51

[[record]]
compound = "Cc1ccc2c(c1)c1c(n2C(=O)Cc2ccc(Cl)cc2)CC2CCC1N2C (stereo not drawn) [Compound 162]"
measvalue = 92

[[record]]
compound = "Cc1ccc(C(O)Cn2c3c(c4cc(Cl)ccc42)C2CCC(C3)N2C)cn1 (stereo not drawn) [Compound 52]"
measvalue = 21

[[record]]
compound = "CN1C2CCC1c1c(n(CC(=O)c3ccc(Cl)cc3)c3ccc(Cl)cc13)C2 (stereo not drawn) [Compound 111]"
measvalue = 94

[[record]]
compound = "Cc1ccc(CCCn2c3c(c4cc(Cl)ccc42)C2CCC(C3)N2C)cn1 (stereo not drawn) [Compound 38]"
measvalue = 13

[[record]]
compound = "CN1C2CCC1c1c(n(CCc3ccc(F)cc3)c3ccc(Cl)cc13)C2 (stereo not drawn) [Compound 57]"
measvalue = 79

[[record]]
compound = "Cc1ccc2c(c1)c1c(n2CCc2cccnc2)CC2CCC1N2C (stereo not drawn) [Compound 86]"
measvalue = 64

[[record]]
compound = "C/C(=C\\n1c2c(c3cc(Cl)ccc31)C1CCC(C2)N1C)c1ccc(Cl)cc1 (stereo not drawn) [Compound 125]"
measvalue = 101

[[record]]
compound = "COc1ccc(CCn2c3c(c4cc(C)ccc42)C2CCC(C3)N2C)cc1 (stereo not drawn) [Compound 83]"
measvalue = 71

[[record]]
compound = "C/C(=C\\n1c2c(c3cc(Cl)ccc31)C1CCC(C2)N1C)c1cccnc1 (stereo not drawn) [Compound 128]"
measvalue = 91

[[record]]
compound = "Cc1ccc2c(c1)c1c(n2CCc2ccc(C)nc2)CC2CCC1N2C (stereo not drawn) [Compound 32]"
measvalue = 15

[[record]]
compound = "CN1[C@H]2CC[C@@H]1c1c(n(CCc3ccc(F)cc3)c3ccc(F)cc13)C2 [Compound 95]"
measvalue = 57

[[record]]
compound = "CC(=O)N1CCN(C(=O)CCn2c3c(c4cc(Cl)ccc42)C2CCC(C3)N2C)CC1 (stereo not drawn) [Compound 8]"
measvalue = 1

[[record]]
compound = "CN1C2CCC1c1c(n(CCC#N)c3ccc(Cl)cc13)C2 (stereo not drawn) [Compound 107]"
measvalue = 5

[[record]]
compound = "CN1[C@@H]2CC[C@H]1c1c(n(CC(=O)N3CCCCC3)c3ccccc13)C2 [Compound 101]"
measvalue = 93

[[record]]
compound = "CN1[C@@H]2CC[C@H]1c1c(n(CCc3ccc(C(F)(F)F)nc3)c3ccccc13)C2 [Compound 97]"
measvalue = 25

[[record]]
compound = "Cc1ccc2c(c1)c1c(n2C#Cc2ccc(F)cc2)CC2CCC1N2C (stereo not drawn) [Compound 141]"
measvalue = 93

[[record]]
compound = "Cc1ccc2c(c1)c1c(n2CCc2ccccc2)CC2CCC1N2C (stereo not drawn) [Compound 2]"
measvalue = 96

[[record]]
compound = "CN1C2CCC1c1c(n(C#Cc3ccc(F)cc3)c3ccc(Cl)cc13)C2 (stereo not drawn) [Compound 138]"
measvalue = 98

[[record]]
compound = "COc1ccc(CCn2c3c(c4cc(Cl)ccc42)C2CCC(C3)N2C)cc1 (stereo not drawn) [Compound 84]"
measvalue = 77

[[record]]
compound = "C/C(=C\\n1c2c(c3cc(C)ccc31)C1CCC(C2)N1C)c1ccc(Cl)cc1Cl (stereo not drawn) [Compound 163]"
measvalue = 94

[[record]]
compound = "Cc1ccc2c(c1)c1c(n2CCc2ccc(C(F)(F)F)nc2)CC2CCC1N2C (stereo not drawn) [Compound 71]"
measvalue = 22

[[record]]
compound = "C/C(=C\\n1c2c(c3cc(C)ccc31)C1CCC(C2)N1C)c1ccc(F)cc1 (stereo not drawn) [Compound 124]"
measvalue = 97

[[record]]
compound = "Cc1ccc2c(c1)c1c(n2CC(C)(O)c2ccc(Cl)cc2)CC2CCC1N2C (stereo not drawn) [Compound 54]"
measvalue = 100

[[record]]
compound = "COc1ccc(C#Cn2c3c(c4cc(C)ccc42)C2CCC(C3)N2C)cc1F (stereo not drawn) [Compound 155]"
measvalue = 100

[[record]]
compound = "Cc1ccc(CCn2c3c(c4ccccc42)C2CCC(C3)N2C)cn1 (stereo not drawn) [Compound 92]"
measvalue = 16

[[record]]
compound = "C/C(=C\\n1c2c(c3cc(C)ccc31)C1CCC(C2)N1C)c1cccnc1 (stereo not drawn) [Compound 129]"
measvalue = 88


Where do the numbers come from? From patent US8546381B2.
